Kindly supply the reported IC50 values for the records listed here.
MEASURED_ON: 72 kDa type IV collagenase (Homo sapiens, UniProt P08253)
Sequence (P08253 whole entry): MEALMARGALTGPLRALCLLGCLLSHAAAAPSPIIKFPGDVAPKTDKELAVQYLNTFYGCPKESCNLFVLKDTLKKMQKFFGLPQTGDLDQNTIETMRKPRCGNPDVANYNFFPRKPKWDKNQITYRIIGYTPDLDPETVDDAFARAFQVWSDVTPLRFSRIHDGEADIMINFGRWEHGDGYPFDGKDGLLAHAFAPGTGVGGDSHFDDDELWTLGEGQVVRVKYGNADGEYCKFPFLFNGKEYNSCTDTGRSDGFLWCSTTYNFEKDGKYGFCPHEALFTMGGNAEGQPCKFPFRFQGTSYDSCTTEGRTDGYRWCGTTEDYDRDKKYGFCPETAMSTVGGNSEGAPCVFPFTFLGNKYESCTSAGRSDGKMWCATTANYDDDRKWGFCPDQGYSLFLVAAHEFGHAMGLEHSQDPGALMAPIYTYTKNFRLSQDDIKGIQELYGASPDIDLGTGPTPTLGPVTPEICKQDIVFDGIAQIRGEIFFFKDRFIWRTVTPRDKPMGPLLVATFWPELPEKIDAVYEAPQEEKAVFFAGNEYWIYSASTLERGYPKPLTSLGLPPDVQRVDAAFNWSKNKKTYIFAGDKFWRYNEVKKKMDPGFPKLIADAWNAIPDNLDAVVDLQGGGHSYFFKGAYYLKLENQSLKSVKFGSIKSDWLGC
Give bare numbers, in nM.

- RECORD_SMILES: "CC[C@@H](C(=O)NO)N(CC(C)C)S(=O)(=O)c1ccc(OC)cc1"
  REPORTED_MEASUREMENT: 53

// below: IC50 requested for another compound
[in] Assign IC50 to the following record: COc1ccc(S(=O)(=O)N(CC(C)C)[C@@H](CCSCc2ccccc2)C(=O)NO)cc1
[out] 0.7

---

MEASURED_ON: Interstitial collagenase (Homo sapiens, UniProt P03956)
Sequence (P03956 whole entry): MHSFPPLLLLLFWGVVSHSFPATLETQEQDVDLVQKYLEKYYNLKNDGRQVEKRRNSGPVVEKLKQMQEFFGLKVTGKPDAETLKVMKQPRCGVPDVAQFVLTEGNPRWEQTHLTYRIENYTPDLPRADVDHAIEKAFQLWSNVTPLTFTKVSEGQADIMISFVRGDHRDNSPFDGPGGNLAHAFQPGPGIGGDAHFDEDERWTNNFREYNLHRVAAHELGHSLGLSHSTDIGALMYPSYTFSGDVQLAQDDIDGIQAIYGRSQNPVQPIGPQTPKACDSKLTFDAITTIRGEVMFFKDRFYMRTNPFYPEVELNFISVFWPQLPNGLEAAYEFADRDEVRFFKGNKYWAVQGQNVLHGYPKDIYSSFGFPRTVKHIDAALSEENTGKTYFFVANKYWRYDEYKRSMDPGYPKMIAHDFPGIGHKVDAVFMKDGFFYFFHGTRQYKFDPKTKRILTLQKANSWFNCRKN
ENDPOINT: IC50
Could you kindly put the unit after your number?

- RECORD_SMILES: "CSCC[C@@H](C(=O)NO)N(CC(C)C)S(=O)(=O)c1ccc(-c2ccccc2)cc1"
  MEASURED_ON: "Interstitial collagenase (Homo sapiens, UniProt P03956)"
  IC50: "156 nM"

// below: IC50 requested for another molecule
[in] Assign IC50 to the following record: COc1ccc(S(=O)(=O)N(CC(C)C)[C@@H](CCSCc2ccccc2)C(=O)NO)cc1
[out] 104 nM

---

These compounds were tested on Stromelysin-1 (Homo sapiens); pIC50 is the recorded read-out.
Sequence (P08254 whole entry): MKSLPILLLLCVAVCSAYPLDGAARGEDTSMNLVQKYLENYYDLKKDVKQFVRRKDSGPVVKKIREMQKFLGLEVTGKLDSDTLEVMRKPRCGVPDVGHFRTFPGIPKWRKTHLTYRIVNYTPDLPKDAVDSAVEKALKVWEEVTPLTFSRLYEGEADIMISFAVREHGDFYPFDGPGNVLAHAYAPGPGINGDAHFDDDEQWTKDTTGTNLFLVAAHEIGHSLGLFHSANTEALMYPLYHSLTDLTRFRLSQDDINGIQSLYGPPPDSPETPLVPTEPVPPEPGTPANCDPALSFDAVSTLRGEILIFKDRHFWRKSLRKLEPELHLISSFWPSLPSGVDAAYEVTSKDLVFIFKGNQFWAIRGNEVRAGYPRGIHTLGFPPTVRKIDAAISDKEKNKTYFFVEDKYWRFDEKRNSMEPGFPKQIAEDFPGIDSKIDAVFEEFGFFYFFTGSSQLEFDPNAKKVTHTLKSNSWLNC
Answers are plain numbers, as −log10 of the molar value.

- RECORD_SMILES: "COc1ccc(S(=O)(=O)N(CC(=O)NC(c2ccccc2)c2ccccc2)[C@H](CCSCc2ccccc2)C(=O)NO)cc1"
  pIC50: 8.43

Field: pIC50. Fill in for each record below.
1. CC(C)CN([C@@H](CCSCc1ccccc1)C(=O)NO)S(=O)(=O)c1ccc(-c2ccccc2)cc1
2. COc1ccc(S(=O)(=O)N(CC(C)C)[C@@H](CCSCc2ccccc2)C(=O)NO)cc1
3. CC[C@@H](C(=O)NO)N(CC(C)C)S(=O)(=O)c1ccc(OC)cc1

[out]
7.05
9.15
7.35

---

MEASURED_ON: Matrix metalloproteinase-9 (Mus musculus)
Sequence (P41245 whole entry): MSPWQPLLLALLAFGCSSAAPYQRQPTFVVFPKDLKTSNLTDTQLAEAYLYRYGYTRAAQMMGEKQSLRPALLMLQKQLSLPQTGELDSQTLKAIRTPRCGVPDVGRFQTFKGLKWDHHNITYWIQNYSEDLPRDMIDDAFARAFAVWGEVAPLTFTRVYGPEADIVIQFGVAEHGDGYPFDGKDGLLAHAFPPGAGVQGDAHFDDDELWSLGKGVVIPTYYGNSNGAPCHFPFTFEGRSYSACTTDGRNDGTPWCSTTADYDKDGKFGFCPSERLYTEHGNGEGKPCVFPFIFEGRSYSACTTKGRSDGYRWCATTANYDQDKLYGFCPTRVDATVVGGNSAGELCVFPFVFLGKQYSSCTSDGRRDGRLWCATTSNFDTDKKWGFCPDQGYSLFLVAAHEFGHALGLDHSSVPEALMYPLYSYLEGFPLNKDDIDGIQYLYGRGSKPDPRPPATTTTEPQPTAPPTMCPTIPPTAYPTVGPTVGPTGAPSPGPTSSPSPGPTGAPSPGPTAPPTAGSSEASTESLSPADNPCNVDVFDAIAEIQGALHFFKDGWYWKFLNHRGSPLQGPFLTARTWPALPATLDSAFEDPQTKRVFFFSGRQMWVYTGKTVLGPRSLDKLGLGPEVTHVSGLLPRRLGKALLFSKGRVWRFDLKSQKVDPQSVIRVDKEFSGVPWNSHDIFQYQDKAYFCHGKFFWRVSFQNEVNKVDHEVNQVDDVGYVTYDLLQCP
EXPERIMENTAL_DETAILS: Inhibitory concentration required against matrix metalloprotease-9 (MMP-9 gelatinase B)
Kindly supply the reported IC50 values for the records listed here.
Give bare numbers, in nM.

// solved cases for IC50 follow
- MOLECULE: "COc1ccc(S(=O)(=O)N(Cc2cccnc2)[C@@H](C(=O)NO)C(C)C)cc1 [CGS-27023A]"
  IC50 (nM): 10
- MOLECULE: "CC(C)CN([C@@H](CCSCc1ccccc1)C(=O)NO)S(=O)(=O)c1ccc(-c2ccccc2)cc1"
  IC50 (nM): 2.5

// below: IC50 requested for another molecule
[in] Assign IC50 to the following record: COc1ccc(S(=O)(=O)N(CC(=O)NC(c2ccccc2)c2ccccc2)[C@H](CCSCc2ccccc2)C(=O)NO)cc1
[out] 0.5

---

MEASURED_ON: Matrix metalloproteinase-9 (Homo sapiens, UniProt P14780)
Sequence (P14780 whole entry): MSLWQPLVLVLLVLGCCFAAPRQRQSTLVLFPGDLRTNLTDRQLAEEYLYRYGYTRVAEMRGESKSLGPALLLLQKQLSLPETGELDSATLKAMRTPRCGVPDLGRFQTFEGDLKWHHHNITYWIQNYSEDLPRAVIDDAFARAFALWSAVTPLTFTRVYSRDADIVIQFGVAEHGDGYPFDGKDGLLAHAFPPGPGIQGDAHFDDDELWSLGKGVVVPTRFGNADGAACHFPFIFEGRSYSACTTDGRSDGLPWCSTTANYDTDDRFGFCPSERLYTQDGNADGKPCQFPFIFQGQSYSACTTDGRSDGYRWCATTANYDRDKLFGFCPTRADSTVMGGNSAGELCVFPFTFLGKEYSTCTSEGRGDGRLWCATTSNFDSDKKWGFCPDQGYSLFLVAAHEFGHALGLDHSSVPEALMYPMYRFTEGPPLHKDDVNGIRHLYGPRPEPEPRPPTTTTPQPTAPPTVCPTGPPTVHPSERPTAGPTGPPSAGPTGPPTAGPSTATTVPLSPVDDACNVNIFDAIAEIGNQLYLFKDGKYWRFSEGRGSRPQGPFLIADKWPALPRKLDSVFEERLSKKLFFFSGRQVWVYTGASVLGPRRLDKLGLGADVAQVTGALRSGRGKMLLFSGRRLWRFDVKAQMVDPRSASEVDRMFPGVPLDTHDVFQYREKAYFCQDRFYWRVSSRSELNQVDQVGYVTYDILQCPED
Kindly supply the reported IC50 values for the records listed here.
Give bare numbers, in nM.

- RECORD_SMILES: "COc1ccc(S(=O)(=O)N(CC(C)C)[C@@H](CCSCc2ccccc2)C(=O)NO)cc1"
  IC50 / nM: 2.5

// below: IC50 requested for another compound
[in] Assign IC50 to the following record: COc1ccc(S(=O)(=O)N(CC(C)C)[C@@H](CCSCc2ccc(OCc3ccccc3)cc2)C(=O)NO)cc1
[out] 8

These measurements were taken from ChEMBL document CHEMBL1132530.
